Recorded values, source paper PMC9721025.

Assay: Pharmacokinetics in beagles, multiple-dose regimen (once per day for 7 days) of TRQI or TRQC, plasma LC-MS/MS
Assay type: in vivo
Settings: male, beagle, dog, iv, 0.5 mL/kg, TRQI 0.5 mL/kg for 7 days, beagle No. 1
Experimental endpoint: AUC(0-inf) (ng·h/mL)

1) O=C(O)[C@H]1O[C@@H](Oc2cc3oc(-c4ccccc4)cc(=O)c3c(O)c2O)[C@H](O)[C@@H](O)[C@@H]1O [Baicalin, baicalin] ... 45.8

[1] C[C@H](CCC(=O)O)[C@H]1CC[C@H]2[C@@H]3[C@@H](O)C[C@@H]4C[C@H](O)CC[C@]4(C)[C@H]3CC[C@]12C [Ursodeoxycholic acid, ursodeoxycholic acid]
[2] O=C(/C=C/c1ccc(O)c(O)c1)O[C@@H]1C[C@](O)(C(=O)O)C[C@@H](O)[C@H]1O [Chlorogenic acid, chlorogenic acid]
[3] C[C@H](CCC(=O)O)[C@H]1CC[C@H]2[C@@H]3[C@H](O)C[C@@H]4C[C@H](O)CC[C@]4(C)[C@H]3CC[C@]12C [Chenodeoxycholic acid, chenodeoxycholic acid]
Problem: Ordering criterion: AUC(0-inf); begin with the maximum. Thanks in advance for listing the labels in the requested order.
Solution: 1, 3, 2
